Data provenance is patent US8653087B2.

ASSAY TARGET: B-Raf (V600E)-kinase (Homo sapiens (Human), UniProt P15056, V600E)
Sequence (P15056 whole entry V600E): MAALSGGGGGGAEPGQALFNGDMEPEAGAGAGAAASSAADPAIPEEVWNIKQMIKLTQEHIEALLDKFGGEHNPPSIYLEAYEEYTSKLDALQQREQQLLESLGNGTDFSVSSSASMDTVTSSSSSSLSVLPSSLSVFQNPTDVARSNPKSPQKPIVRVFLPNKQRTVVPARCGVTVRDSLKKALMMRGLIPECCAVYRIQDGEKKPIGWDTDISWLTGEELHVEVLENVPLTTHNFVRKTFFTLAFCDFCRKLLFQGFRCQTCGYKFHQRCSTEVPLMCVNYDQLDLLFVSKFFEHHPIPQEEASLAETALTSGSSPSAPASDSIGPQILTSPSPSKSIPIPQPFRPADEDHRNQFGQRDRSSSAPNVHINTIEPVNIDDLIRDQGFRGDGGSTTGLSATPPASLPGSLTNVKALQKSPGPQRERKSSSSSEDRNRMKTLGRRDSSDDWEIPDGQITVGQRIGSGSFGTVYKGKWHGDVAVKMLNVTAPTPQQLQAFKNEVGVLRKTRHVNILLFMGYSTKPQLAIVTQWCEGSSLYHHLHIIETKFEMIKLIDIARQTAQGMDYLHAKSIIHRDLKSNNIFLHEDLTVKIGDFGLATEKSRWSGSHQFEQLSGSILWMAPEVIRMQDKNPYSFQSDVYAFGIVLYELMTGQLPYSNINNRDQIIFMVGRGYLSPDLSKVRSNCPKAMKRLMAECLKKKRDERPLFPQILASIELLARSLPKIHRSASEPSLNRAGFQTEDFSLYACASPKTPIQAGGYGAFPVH
ASSAY: Kinase test B-RAF (V600E)
Type: biochemical
CONDITION NOTES: B-RAF (V600E) kinase test, 250 μM ATP
Kindly supply the reported pIC50 values for the records listed here.
Give bare numbers, as −log10 of the molar value.

Some molecules with recorded pIC50:
MOLECULAR STRING	ASSAY TARGET	pIC50
Cc1ccc(C(=O)Nc2cc(C(C)(C)C)nn2C)cc1Nc1ncnc2cnc(N3CCN(CC4CCN(C)CC4)CC3)nc12	B-Raf (V600E)-kinase (Homo sapiens (Human), UniProt P15056, V600E)	8.15
Cc1ccc(NC(=O)c2cc(N3CCN(C)CC3)cc(C(C)(C)C#N)c2)cc1Nc1ncnc2cnc(N3CCOCC3)nc12	B-Raf (V600E)-kinase (Homo sapiens (Human), UniProt P15056, V600E)	8.52
Cc1ccc(C(=O)Nc2cc(CN3CCCC3)cc(C(F)(F)F)c2)cc1Nc1ncnc2cnc(N3CCC3)nc12	B-Raf (V600E)-kinase (Homo sapiens (Human), UniProt P15056, V600E)	8.40

// for each molecule in input: emit pIC50
1. COCCN1CCN(c2ncc3ncnc(Nc4cc(C(=O)Nc5cc(-n6cnc(C)c6)cc(C(F)(F)F)c5)ccc4C)c3n2)CC1
2. CN1CCCN(c2nc(N)c3ncnc(Nc4cc(C(=O)Nc5cccc(C(F)(F)F)c5)ccc4Br)c3n2)CC1
3. CC(C)(C)c1cc(NC(=O)c2ccc(C(F)(F)F)c(Nc3ncnc4cnc(N5CCCCCC5)nc34)c2)no1

1: 8.10; 2: 7.08; 3: 5.74

// for each molecule in input: emit pIC50
1. Cc1ccc(C(=O)Nc2cc(OCCN(C)C)cc(C(F)(F)F)c2)cc1Nc1ncnc2cnc(N3CCC(F)CC3)nc12
2. COCCNc1ncc2ncnc(Nc3cc(C(=O)Nc4cc(CN5CCCC5)cc(C(F)(F)F)c4)ccc3C)c2n1

1. 8.70
2. 9.00

// for each molecule in input: emit pIC50
1. Cc1ccc(C(=O)Nc2cccc(C(F)(F)F)c2)cc1Nc1ncnc2c(N)nc(N3CCCN(c4ncccn4)CC3)nc12
2. Cc1ccc(C(=O)Nc2cc(C(C)(C)C)on2)cc1Nc1ncnc2cnc(N3CCN(CCN4CCOCC4)CC3)nc12
3. Cc1ccc(NC(=O)c2cccc(C(F)(F)F)c2)cc1Nc1ncnc2c(N)nc(N3CCCN(c4ccncc4)CC3)nc12

9.00
9.00
8.15

----------
ASSAY TARGET: B-Raf (V600E)-kinase (Homo sapiens (Human), UniProt P15056, V600E)
ASSAY: Kinase test B-RAF (V600E)
Format: biochemical
CONDITION NOTES: B-RAF (V600E) kinase test, 250 μM ATP
MEASURED QUANTITY: pIC50
Give bare numbers, as −log10 of the molar value.

Some compounds with recorded pIC50:
MOLECULAR STRING	MEASURED QUANTITY	QUANTITATIVE RESULT
COc1ccc(NC(=O)c2ccc(C(F)(F)F)c(Nc3ncnc4cnc(N5CCCN(C)CC5)nc34)c2)cc1C(F)(F)F	pIC50	6.55
Cc1ccc(C(=O)Nc2cccc(C(F)(F)F)c2)cc1Nc1ncnc2c(N)nc(N3CCCNCC3)nc12	pIC50	9.00
Cc1ccc(C(=O)NC2CC2)cc1Nc1ncnc2cnc(N3CCCCC3)nc12	pIC50	5.70
COc1ccc(NC(=O)c2ccc(F)c(Nc3ncnc4cnc(NCCCN5CCOCC5)nc34)c2)cc1C(F)(F)F	pIC50	8.52
CC(C)(C)c1cc(NC(=O)c2ccc(C(F)(F)F)c(Nc3ncnc4cnc(N5CCOCC5)nc34)c2)no1	pIC50	7.89

We now examine a further compound.
The compound Cc1ccc(NC(=O)c2cccc(C(C)(C)C#N)c2)cc1Nc1ncnc2cnc(N(C)C3CCOCC3)nc12 showed pIC50 equal to 8.30
